- System: ECE (Cavia porcellus)
- Construct: tissue Keystone Biologicals, Cleveland, Ohio; host or cells: frozen guinea pig lungs; lubrol PX-treated lung membranes
- Sequence (P97739 whole entry): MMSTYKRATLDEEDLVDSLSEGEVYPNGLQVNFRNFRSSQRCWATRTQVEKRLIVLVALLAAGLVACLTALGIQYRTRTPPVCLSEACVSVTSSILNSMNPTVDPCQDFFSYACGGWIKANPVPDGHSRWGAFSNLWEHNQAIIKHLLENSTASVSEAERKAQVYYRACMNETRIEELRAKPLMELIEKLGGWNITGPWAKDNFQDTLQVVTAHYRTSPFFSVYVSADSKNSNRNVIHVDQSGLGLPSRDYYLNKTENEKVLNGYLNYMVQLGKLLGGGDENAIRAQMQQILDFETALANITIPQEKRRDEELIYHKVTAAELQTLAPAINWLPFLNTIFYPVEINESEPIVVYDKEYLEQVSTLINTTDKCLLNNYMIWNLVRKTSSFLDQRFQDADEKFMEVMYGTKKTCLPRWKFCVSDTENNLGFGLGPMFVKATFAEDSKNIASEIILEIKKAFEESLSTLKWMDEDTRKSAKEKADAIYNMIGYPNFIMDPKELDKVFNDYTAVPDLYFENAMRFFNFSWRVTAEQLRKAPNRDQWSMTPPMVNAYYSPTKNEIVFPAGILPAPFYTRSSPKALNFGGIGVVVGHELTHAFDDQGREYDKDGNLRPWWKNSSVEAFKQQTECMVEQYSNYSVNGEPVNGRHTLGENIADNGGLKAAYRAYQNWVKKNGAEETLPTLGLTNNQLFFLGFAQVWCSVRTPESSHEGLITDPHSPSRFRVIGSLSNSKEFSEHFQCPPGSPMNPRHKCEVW
- Assay Procedure: In vitro ECE assay (inhibition of [125I]BET-1 to [125I]ET-1 conversion, lubrol-treated guinea pig lung membrane)
- Type: biochemical
- Condition Context: L-GPLGM, 2 h preincubation at 4° C., 500 pM [125I]BET-1, table of examples, read-out: ECE IC50
- Text: The ECE assay is based on the quantitative determination of [^125 l]ET-1 released from [^125 l]BET-1 labeled on Tyrosine-13 by binding to the membrane-bound ET receptor. […] GPLGM was also found to contain a high density of ET receptors. Thus, this preparation was utilized as a source of both ECE and a saturating concentration of ET receptors for the quantitative determination of [251l]ET-1 from the conversion of [125l ]BET-1. […]
Reported pIC50 values follow for various molecules
Reminder that pIC50 is minus the log10 of a molar concentration.

1) COc1ccc(CC(NC(=O)[C@H](CCCCNC(=O)OCc2ccccc2)NS(C)(=O)=O)P(=O)(O)CC2(C(=O)N[C@@H](Cc3c[nH]c4ccccc34)C(=O)O)CCCC2)cc1 (some centres unmarked)    7.30
2) O=C(N[C@@H](Cc1ccccc1)P(=O)(O)CC1(C(=O)N[C@@H](Cc2ccc(O)cc2)C(=O)O)CCCC1)OCc1ccccc1    6.89
3) O=C(NC(Cc1ccccc1)P(=O)(O)CC1(C(=O)N[C@@H](Cc2c[nH]c3ccccc23)C(=O)O)CCCCCC1)OCc1ccccc1 (some centres unmarked)    6.10

Q. Identify measured pIC50 associated with CC(C)CC(CP(=O)(O)C(Cc1ccc2ccccc2c1)NC(=O)[C@H](CCCCNC(=O)OCc1ccccc1)NS(C)(=O)=O)C(=O)N[C@@H](Cc1c[nH]c2ccccc12)C(=O)O (single isomer, unassigned) [Example 9B]
A. 5.35

Q. Identify measured pIC50 associated with CS(=O)(=O)N[C@@H](CCCCNC(=O)OCc1ccccc1)C(=O)N[C@@H](Cc1ccccc1)P(=O)(O)CC1(C(=O)N[C@@H](Cc2ccc(O)cc2)C(=O)O)CCCC1
A. 6.92
